# system tested: T1, type 2 ryanodine receptor (RyR2) channel in cardiac SR membranes (pig (endogenous in porcine heart SR), UniProt A0A5G2R1W3 1-4900)
# T1 construct: type 2 ryanodine receptor (RyR2), pig heart; homotetrameric assembly of 565-kDa protomers; 'intact RyR2 in cardiac SR vesicles'; In every assay RyR2 stood in native SR membranes and was preloaded with a donor-labelled FKBP12.6 (D-FKBP); also called cardiac ryanodine receptor; source: endogenous, SR vesicles isolated by differential ultracentrifugation of porcine ventricular tissue; residual …
# experimental details: FRET or BRET; FRET from D-FKBP (labelled position not stated for this experiment) on RyR2 in cardiac SR to A-DPc10 (QXL520), series of [A-DPc10]; 30 nM Ca2+, no CaM; Hill fit
# assay context: one partner purified
Ends that are not written are not given here. QXL520 = non-fluorescent dark acceptor (quencher) probe
measured endpoint: Kd (µM)

{"binder": "QXL520-GFCPDHKAAMVLFLDRVYGIEVQDFLLHLLEVGFLP (also called acceptor-DPc10; source: synthetic peptide (AnaSpec)) [acceptor-labeled DPc10 (A-DPc10), QXL520 at the N-terminus]", "value measured": 10.4}
